Just for reference, paper PMC5515982 is where these values come from.

# ASSAY DETAILS: Concentration of pesticides and metabolites in plasma of rats after 90-day gavage exposure to a pesticide mixture
# Type: in vivo, rat
# CONDITION: plasma; exposure expressed as mg/kg per day, concentration as ng/mL; detected values only
READOUT TYPE: Slope (linear fit), concentration in plasma versus level of exposure
When you answer, write just the number.

Query string: I have this compound here, Oc1c(Cl)c(Cl)c(Cl)c(Cl)c1Cl [Pentachlorophenol] , and I need its recorded Slope (linear fit), concentration in plasma versus level of exposure.
Result string: 2039

Query string: I have this compound here, Cl[C@H]1[C@H](Cl)[C@@H](Cl)[C@H](Cl)[C@@H](Cl)[C@@H]1Cl [β-HCH, β-hexachlorocyclohexane] , and I need its recorded Slope (linear fit), concentration in plasma versus level of exposure.
Result string: 199

Query string: I have this compound here, CCOP(O)(=S)OCC [DETP, diethylthiophosphate] , and I need its recorded Slope (linear fit), concentration in plasma versus level of exposure.
Result string: 3.26

Query string: I have this compound here, N#Cc1nn(-c2c(Cl)cc(C(F)(F)F)cc2Cl)c(N)c1S(=O)(=O)C(F)(F)F [Fipronil sulfone] , and I need its recorded Slope (linear fit), concentration in plasma versus level of exposure.
Result string: 976

Query string: I have this compound here, CC(C)Oc1cc(-n2nc(C(C)(C)C)oc2=O)c(Cl)cc1Cl [Oxadiazon] , and I need its recorded Slope (linear fit), concentration in plasma versus level of exposure.
Result string: 38.5

Query string: I have this compound here, CCCN(CCC)c1c([N+](=O)[O-])cc(C(F)(F)F)cc1[N+](=O)[O-] [Trifluralin] , and I need its recorded Slope (linear fit), concentration in plasma versus level of exposure.
Result string: 1.57

Query string: I have this compound here, CC(C)Oc1ccccc1O [2-IPP, 2-isopropoxyphenol] , and I need its recorded Slope (linear fit), concentration in plasma versus level of exposure.
Result string: 10.4

Query string: I have this compound here, CC1(C)C(/C=C(\Cl)C(F)(F)F)C1C(=O)OC(C#N)c1cccc(Oc2ccccc2)c1 (stereo not drawn) [λ-Cyhalothrin] , and I need its recorded Slope (linear fit), concentration in plasma versus level of exposure.
Result string: 116

Query string: I have this compound here, Clc1ccc(C(c2ccc(Cl)cc2)C(Cl)Cl)cc1 [p,p′-DDD, p,p′-dichlorodiphenyldichloroethane] , and I need its recorded Slope (linear fit), concentration in plasma versus level of exposure.
Result string: 13.1
